- Tested on: depp
- assay.text: Real-time quantitative PCR of PLsis marker gene expression
- Format: cell-based, human
- cond: HepG2 cells, 24 hr exposure, relative value, control group = 1.0, GAPDH internal standard, n=3
- Method: Using RNeasy Mini Kit (QIAGEN), total RNA was purified from the cells, and cDNA was synthesized in a 100 μL system using TaqMan Reverse Transcription Reagents (PE Applied Biosystems). As the primer for glyceraldehyde-3-phosphoric acid dehydrogenase (GAPDH) and VIC labeled probe, those attached to TaqMan GAPDH Control Reagents (PE Applied Biosystems) were used. […] For each test compound, the expression variation rate of 12 genes each relative to the control group was determined.
property.name: expression variation rate depp
Response field accepts a number only; no unit should be typed.

As a guide, the following entries are already answered.
CNS(=O)(=O)Cc1ccc2[nH]cc(CCN(C)C)c2c1 :: 1.05
CC(C)NCC(O)c1ccc(NS(C)(=O)=O)cc1 (centres unmarked) :: 0.80

Task item: Given the compound CN(C)CCCN1c2ccccc2Sc2ccc(Cl)cc21 , what is its reported expression variation rate depp?
Reply: 2.95

Task item: Please give the measured expression variation rate depp for this compound: CC/C(=C(\c1ccccc1)c1ccc(OCCN(C)C)cc1)c1ccccc1
Reply: 2.02

Task item: Which value of expression variation rate depp has been reported for CNCCC(Oc1ccc(C(F)(F)F)cc1)c1ccccc1 (centres unmarked) in the records?
Reply: 3.08

Task item: // lookup expression variation rate depp for CSc1ccc2c(c1)N(CCC1CCCCN1C)c1ccccc1S2 (centres unmarked)
Reply: 2.02

Task item: // expression variation rate depp lookup, key: N=C(N)c1ccc(OCCCCCOc2ccc(C(=N)N)cc2)cc1
Reply: 2.88

From: patent US20070218460A1
